# system-name: OsWOX13 (Oryza sativa, UniProt Q5QMM3 1-267)
# Sequence: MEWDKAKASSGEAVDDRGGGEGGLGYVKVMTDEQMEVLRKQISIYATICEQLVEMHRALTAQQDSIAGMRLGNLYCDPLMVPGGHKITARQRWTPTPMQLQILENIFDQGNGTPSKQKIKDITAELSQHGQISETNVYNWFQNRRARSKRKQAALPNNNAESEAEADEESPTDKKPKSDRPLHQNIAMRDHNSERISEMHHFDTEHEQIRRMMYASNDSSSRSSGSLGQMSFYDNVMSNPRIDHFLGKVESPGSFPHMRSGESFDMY
# experiment-notes: protein-binding microarray (RPBM); PBS, 2% BSA, 51.3 ng/ul salmon testes DNA, 50 uM zinc acetate, 200 nM TF, 25 C, 1 h; high values mean tight binding
# test-settings: protein: recombinant; tags: N-terminal polyhistidine and DsRed monomer fusion (pET32a); label: CyDye5-dUTP incorporated in the synthesized complementary strand; 3' TTTTT single-stranded linker to array surface; dsDNA, one strand shown
Whole data set: some 35,000 sequences, median “fluorescence intensity (a.u.)” near 10,000, cut for the highest 2% near 52,000. The full list was thinned out, with the highest values kept by preference.
attribute-measured: binding signal

Challenge: Answer with the recorded binding signal of "TCTGATTGCTGTTAGTTGTTGATGAGATGGAGATGGAGATCGGAGTCACCTAGTGCAG" only.
Response given: 39900 fluorescence intensity (a.u.)

Challenge: Answer with the recorded binding signal of "TCTGTTGATGAATGGATTGATTGATGGATGGATGGATGGTCGGAGTCACCTAGTGCAG" only.
Response given: 64100 fluorescence intensity (a.u.)

Challenge: Answer with the recorded binding signal of "TTCTGATTTGCCCCTATCTTATTGAGATTGCTTGTGTGATCGGAGTCACCTAGTGCAG" only.
Response given: 30600 fluorescence intensity (a.u.)

Challenge: Answer with the recorded binding signal of "CTTTGTAGACTGACAGTGATAGTATTGTACTGCTATACGTCGGAGTCACCTAGTGCAG" only.
Response given: 9250 fluorescence intensity (a.u.)

Challenge: Answer with the recorded binding signal of "ATTATCCATTCAATCAAAACAAGCAGGACTACTAGAAAGCCGGAGTCACCTAGTGCAG" only.
Response given: 8940 fluorescence intensity (a.u.)

Challenge: Answer with the recorded binding signal of "CAAAATTTGATGAATGGAAGGGTCGAAACTGAGTGATTGCCGGAGTCACCTAGTGCAG" only.
Response given: 23600 fluorescence intensity (a.u.)

Challenge: Answer with the recorded binding signal of "AATGGAGATTGGATCTGATTGGTTGTTGTTGCTTGAGGATCGGAGTCACCTAGTGCAG" only.
Response given: 62600 fluorescence intensity (a.u.)

Challenge: Answer with the recorded binding signal of "AGTTGATTGGTAAAGTGACATGCTTGAACACTGTTGGAGCCGGAGTCACCTAGTGCAG" only.
Response given: 54000 fluorescence intensity (a.u.)

----------
# system-name: OsWOX13 (Oryza sativa, UniProt Q5QMM3 1-267)
# Sequence: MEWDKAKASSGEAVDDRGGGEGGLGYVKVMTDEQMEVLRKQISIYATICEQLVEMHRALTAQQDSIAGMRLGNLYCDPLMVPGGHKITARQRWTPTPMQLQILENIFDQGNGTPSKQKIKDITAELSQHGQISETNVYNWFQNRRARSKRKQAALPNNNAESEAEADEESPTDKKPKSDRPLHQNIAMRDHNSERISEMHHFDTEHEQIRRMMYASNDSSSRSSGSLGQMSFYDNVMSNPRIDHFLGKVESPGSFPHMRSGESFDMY
# experiment-notes: protein-binding microarray (RPBM); PBS, 2% BSA, 51.3 ng/ul salmon testes DNA, 50 uM zinc acetate, 200 nM TF, 25 C, 1 h; high values mean tight binding
# test-settings: protein: recombinant; tags: N-terminal polyhistidine and DsRed monomer fusion (pET32a); label: CyDye5-dUTP incorporated in the synthesized complementary strand; 3' TTTTT single-stranded linker to array surface; dsDNA, one strand shown
Whole data set: some 35,000 sequences, median “fluorescence intensity (a.u.)” near 10,000, cut for the highest 2% near 52,000. The sample as a whole holds a higher share of the highest values than the screen did.
attribute-measured: binding signal

Challenge: Answer with the recorded binding signal of "CTAACTCAATGATTAAAATCTCGCCAGATCCCTCCTGCGTCGGAGTCACCTAGTGCAG" only.
Response given: 16700 fluorescence intensity (a.u.)

Challenge: Answer with the recorded binding signal of "GAGCAATTAGGCTTAAAAGATTCGTCTCGCAAATTAGTCGCGGAGTCACCTAGTGCAG" only.
Response given: 3540 fluorescence intensity (a.u.)

Challenge: Answer with the recorded binding signal of "TAAATTGACAAATTCAACCTAGGCCTGGACTTATTTGGCGCGGAGTCACCTAGTGCAG" only.
Response given: 57500 fluorescence intensity (a.u.)

Challenge: Answer with the recorded binding signal of "TCCTTGATTTCTCCCCTCTCTCTGTCATTTCTCTCTTCCTCGGAGTCACCTAGTGCAG" only.
Response given: 13500 fluorescence intensity (a.u.)

----------
For each entry below, report its binding signal value.
# system-name: OsWOX13 (Oryza sativa, UniProt Q5QMM3 1-267)
# Sequence: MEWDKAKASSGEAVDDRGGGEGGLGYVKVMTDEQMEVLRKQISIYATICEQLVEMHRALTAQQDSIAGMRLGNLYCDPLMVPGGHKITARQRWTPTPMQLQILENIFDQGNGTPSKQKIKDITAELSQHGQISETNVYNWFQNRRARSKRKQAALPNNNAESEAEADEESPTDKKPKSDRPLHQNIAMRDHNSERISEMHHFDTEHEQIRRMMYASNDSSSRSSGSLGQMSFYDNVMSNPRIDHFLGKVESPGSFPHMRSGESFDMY
# experiment-notes: protein-binding microarray (RPBM); PBS, 2% BSA, 51.3 ng/ul salmon testes DNA, 50 uM zinc acetate, 200 nM TF, 25 C, 1 h; high values mean tight binding
# test-settings: protein: recombinant; tags: N-terminal polyhistidine and DsRed monomer fusion (pET32a); label: CyDye5-dUTP incorporated in the synthesized complementary strand; 3' TTTTT single-stranded linker to array surface; dsDNA, one strand shown
The full ranking holds about 35,000 sequences; the median of “fluorescence intensity (a.u.)” is about 10,000, and the highest 2% start at about 52,000. The entries come from a sample that favours the highest values as a whole.

Challenge: Answer with the recorded binding signal of "TTATGATTATTTTAGAATTTTCAAAATCATGGAATATAATCGGAGTCACCTAGTGCAG" only.
Response given: 7490 fluorescence intensity (a.u.)

Challenge: Answer with the recorded binding signal of "GATTTATTGACATCTATATGAATATAGACATTGATAAAAGCGGAGTCACCTAGTGCAG" only.
Response given: 8710 fluorescence intensity (a.u.)

Challenge: Answer with the recorded binding signal of "TTGTAATTACATAAATTATACGAATTGTAAAGATTTGGCACGGAGTCACCTAGTGCAG" only.
Response given: 54600 fluorescence intensity (a.u.)

Challenge: Answer with the recorded binding signal of "CTTTGACAGATTGGTGGGAGATAAGAGAAATGAGGAGGTGCGGAGTCACCTAGTGCAG" only.
Response given: 51900 fluorescence intensity (a.u.)

Challenge: Answer with the recorded binding signal of "GGTAAATTGCAATACTCCGGATGTTCAGAGACAATAAGAGCGGAGTCACCTAGTGCAG" only.
Response given: 13900 fluorescence intensity (a.u.)

Challenge: Answer with the recorded binding signal of "TTCGAATCTCTGATTGGGAGTTCAGGTCAGAGACGTTCAGCGGAGTCACCTAGTGCAG" only.
Response given: 14700 fluorescence intensity (a.u.)

Challenge: Answer with the recorded binding signal of "TTGCTATTTGTTGGTTTGATTTATTGCTACTGCAACAGATCGGAGTCACCTAGTGCAG" only.
Response given: 3880 fluorescence intensity (a.u.)
